# assay-system: human TRPA1 (Homo sapiens)
# Sequence (O75762 whole entry): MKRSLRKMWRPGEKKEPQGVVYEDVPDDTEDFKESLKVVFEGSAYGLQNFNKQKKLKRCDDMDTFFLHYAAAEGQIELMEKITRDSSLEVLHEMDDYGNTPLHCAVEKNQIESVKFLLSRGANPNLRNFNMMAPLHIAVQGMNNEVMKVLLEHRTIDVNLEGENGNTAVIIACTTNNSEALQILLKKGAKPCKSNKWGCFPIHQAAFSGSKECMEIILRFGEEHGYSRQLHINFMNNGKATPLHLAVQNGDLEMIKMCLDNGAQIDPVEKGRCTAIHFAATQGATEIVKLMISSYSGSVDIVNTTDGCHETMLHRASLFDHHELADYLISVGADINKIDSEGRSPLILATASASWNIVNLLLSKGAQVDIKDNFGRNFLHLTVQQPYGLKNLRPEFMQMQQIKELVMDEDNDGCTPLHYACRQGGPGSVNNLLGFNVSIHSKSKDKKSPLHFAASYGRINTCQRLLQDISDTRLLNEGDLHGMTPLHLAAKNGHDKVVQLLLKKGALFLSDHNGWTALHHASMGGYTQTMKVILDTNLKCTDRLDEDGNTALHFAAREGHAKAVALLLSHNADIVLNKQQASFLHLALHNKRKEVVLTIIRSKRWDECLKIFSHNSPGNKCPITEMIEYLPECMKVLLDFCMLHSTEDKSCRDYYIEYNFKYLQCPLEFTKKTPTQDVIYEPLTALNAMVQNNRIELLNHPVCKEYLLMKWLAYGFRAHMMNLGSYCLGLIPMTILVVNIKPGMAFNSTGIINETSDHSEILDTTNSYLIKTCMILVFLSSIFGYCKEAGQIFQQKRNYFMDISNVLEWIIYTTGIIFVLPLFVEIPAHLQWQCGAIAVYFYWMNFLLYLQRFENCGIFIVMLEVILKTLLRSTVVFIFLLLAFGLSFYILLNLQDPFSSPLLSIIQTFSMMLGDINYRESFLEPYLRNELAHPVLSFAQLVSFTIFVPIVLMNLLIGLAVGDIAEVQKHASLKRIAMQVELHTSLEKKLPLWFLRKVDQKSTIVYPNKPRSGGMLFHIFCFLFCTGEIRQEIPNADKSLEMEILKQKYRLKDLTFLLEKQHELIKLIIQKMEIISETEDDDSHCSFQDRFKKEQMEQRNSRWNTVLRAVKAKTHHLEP
# assay-details: FLIPR Ca2+ assay, reduction of hydrogen peroxide activation of TRPA1
# Type: cell-based
# Design: expressed in transfected cells
# details: compound 100 μM against 200 μM hydrogen peroxide; Sets 1-4
value-type: Average Ca++ Counts (Counts)

                                    molecule           value_type  display_unit  reported_result
 0  COc1nccnc1CC(C)C [2-isobutyl-3-methoxypyrazine]  Average Ca++ Counts        Counts           3067.5
 1  CCCCCCCC(C)O (stereo not shown) [2-nonanol]  Average Ca++ Counts        Counts           3064.5
 2  O=C(O)CC(O)C(=O)O (stereo not shown) [malic acid]  Average Ca++ Counts        Counts           5617.5
 3            CSCSCSC [2,4,6-trithiaheptane]  Average Ca++ Counts        Counts           4610.5
 4                   CCCC(=O)CC [3-hexanone]  Average Ca++ Counts        Counts           3381.5
 5  CC1CCC(=O)C1=O (stereo not shown) [3-methyl-1,2-cyclopentanedione]  Average Ca++ Counts        Counts           3246.5
 6      CC1=CCC(C(C)C)=CC1 [gamma-terpinene]  Average Ca++ Counts        Counts           3124.0
 7  CC(=O)c1cccnc1 [3-acetylpyridine, 98%, 3-acetylpyridine]  Average Ca++ Counts        Counts           2981.0
 8      SCCc1cnccn1 [2-pyrazinylethanethiol]  Average Ca++ Counts        Counts           1987.5
 9    O=Cc1ccc(O)cc1 [4-hydroxybenzaldehyde]  Average Ca++ Counts        Counts           3424.5
10     CCCCC(=O)C(C)C [2-methyl-3-heptanone]  Average Ca++ Counts        Counts           4994.0
11  Cc1ccc(C=O)c(O)c1 [2-hydroxy-4-methylbenzaldehyde]  Average Ca++ Counts        Counts           3429.0
12  CCOc1nccnc1C [2-methyl-3-ethoxypyrazine]  Average Ca++ Counts        Counts           3197.0
13  C=CCOC(=O)CCC1CCCCC1 [allyl cyclohexanepropionate]  Average Ca++ Counts        Counts           3443.0
14  COC(=O)c1ccc(O)cc1 [methyl 4-hydroxybenzoate]  Average Ca++ Counts        Counts           4904.5
15  CC(=O)c1ccc(C)o1 [2-acetyl-5-methylfuran]  Average Ca++ Counts        Counts           2937.0
